target: EPHB1 (UniProt P54762); test: phosphorylation enrichment, bacterial display (enrichment ratio); higher = better substrate or ligand; peptides without Tyr show the background;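 note: 11-residue human phosphosite peptides and single-mutation variants displayed on the E. coli surface, counted by deep sequencing, each peptide's frequency after selection divided by its frequency in the unselected input library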;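 note: frequency after pTyr selection over input frequency; kinase dosed for 20-30% of maximal phosphorylation in three min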
Sequence (P54762 whole entry, looked up): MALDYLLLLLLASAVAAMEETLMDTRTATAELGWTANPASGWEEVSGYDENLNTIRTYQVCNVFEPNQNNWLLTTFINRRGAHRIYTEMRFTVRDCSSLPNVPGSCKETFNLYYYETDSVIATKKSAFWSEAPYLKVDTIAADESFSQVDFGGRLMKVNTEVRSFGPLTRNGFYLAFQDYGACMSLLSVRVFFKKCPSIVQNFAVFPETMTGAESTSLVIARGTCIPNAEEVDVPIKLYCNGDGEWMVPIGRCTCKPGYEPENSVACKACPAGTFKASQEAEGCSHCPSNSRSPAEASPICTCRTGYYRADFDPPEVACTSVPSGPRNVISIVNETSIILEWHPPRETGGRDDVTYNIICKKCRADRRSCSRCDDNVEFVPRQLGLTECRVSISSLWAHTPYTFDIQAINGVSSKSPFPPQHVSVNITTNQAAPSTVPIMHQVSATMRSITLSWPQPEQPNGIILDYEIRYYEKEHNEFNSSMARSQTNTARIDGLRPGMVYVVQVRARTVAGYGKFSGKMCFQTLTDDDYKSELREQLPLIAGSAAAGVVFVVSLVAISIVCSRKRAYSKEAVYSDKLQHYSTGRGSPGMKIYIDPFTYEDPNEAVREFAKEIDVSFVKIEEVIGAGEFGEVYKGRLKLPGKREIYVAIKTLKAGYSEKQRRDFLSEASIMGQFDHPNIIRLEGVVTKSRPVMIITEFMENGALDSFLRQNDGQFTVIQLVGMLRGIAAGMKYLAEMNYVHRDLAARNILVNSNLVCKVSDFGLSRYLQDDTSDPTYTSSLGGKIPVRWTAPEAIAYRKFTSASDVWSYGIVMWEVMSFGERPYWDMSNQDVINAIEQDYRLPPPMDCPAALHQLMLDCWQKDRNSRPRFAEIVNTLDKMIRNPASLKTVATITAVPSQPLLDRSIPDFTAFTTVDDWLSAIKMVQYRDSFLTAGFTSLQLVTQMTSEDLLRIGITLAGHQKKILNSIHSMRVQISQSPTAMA

>  <chain-sequence>
ELQDDYEDTME [SLC4A1_Y8_M11T]

>  <phosphorylation enrichment>
0.942

$$$$
>  <chain-sequence>
RESVSYLFSHV [PRPS1_Y311_G306R]

>  <phosphorylation enrichment>
0.588

$$$$
>  <chain-sequence>
KNKELYSDLFD [PDE10A_Y300]

>  <phosphorylation enrichment>
1.03

$$$$
>  <chain-sequence>
NMSRIYSTTKV [ACE_Y151_A154T]

>  <phosphorylation enrichment>
0.296

$$$$
>  <chain-sequence>
WAMPAYNRSKL [WWOX_Y293_L291P]

>  <phosphorylation enrichment>
0.289

$$$$
>  <chain-sequence>
FEPWVYSLSFE [PRKDC_Y647_F649L_YF]

>  <phosphorylation enrichment>
0.607

$$$$
>  <chain-sequence>
KKARAYGPGIE [FLNA_Y287]

>  <phosphorylation enrichment>
0.328

$$$$
>  <chain-sequence>
ARAGEYGAEAL [HBA1_Y25_H21R]

>  <phosphorylation enrichment>
0.465

$$$$
>  <chain-sequence>
QRRLVYFERGA [RYR1_Y245_G248R_YF]

>  <phosphorylation enrichment>
0.665

$$$$
>  <chain-sequence>
CDKEYYSVHNK [MET_Y1235_Y1230C]

>  <phosphorylation enrichment>
0.734

$$$$
>  <chain-sequence>
VEDQYYRVDCY [FHL1_Y208_C209R]

>  <phosphorylation enrichment>
0.711

$$$$
>  <chain-sequence>
VFAPDFIAGVS [NOB1_Y366_Y366F]

>  <phosphorylation enrichment>
0.52

$$$$
>  <chain-sequence>
PGPPGYCDSSH [COL12A1_Y3043_Q3048H]

>  <phosphorylation enrichment>
0.724

$$$$
>  <chain-sequence>
EVESPYEVHDY [GIGYF2_Y1168]

>  <phosphorylation enrichment>
0.785

$$$$
>  <chain-sequence>
LSVISYDLGMF [GBA3_Y174_M172I]

>  <phosphorylation enrichment>
0.742

$$$$
>  <chain-sequence>
PFSSPYENSLI [EPOR_Y489_N487S_YF]

>  <phosphorylation enrichment>
1.24

$$$$
>  <chain-sequence>
EPNSRYTYKLE [USH2A_Y3745]

>  <phosphorylation enrichment>
0.537

$$$$
>  <chain-sequence>
SFPSFYTSHVQ [NEFL_Y443_YF]

>  <phosphorylation enrichment>
0.677

$$$$
>  <chain-sequence>
EQDRAYLEGTC [HLA-C_Y183_L180D]

>  <phosphorylation enrichment>
0.549

$$$$
>  <chain-sequence>
PQGVRYTYTID [DCX_Y103_I104T]

>  <phosphorylation enrichment>
0.702

$$$$
>  <chain-sequence>
ANYTEYVATSW [CDKL5_Y171_R175S]

>  <phosphorylation enrichment>
7.89

$$$$
>  <chain-sequence>
AHAGGYGAEAL [HBA1_Y25_E24G]

>  <phosphorylation enrichment>
0.436

$$$$
>  <chain-sequence>
KYLENYYDLEK [MMP3_Y41_K45E]

>  <phosphorylation enrichment>
9.73

$$$$
>  <chain-sequence>
SLLPDYEDEEE [ZNF830_Y159]

>  <phosphorylation enrichment>
0.744

$$$$
>  <chain-sequence>
NSRYTYKLEVK [USH2A_Y3747]

>  <phosphorylation enrichment>
0.618

$$$$
>  <chain-sequence>
VLICAYLLHRG [PTEN_Y138_M134L]

>  <phosphorylation enrichment>
0.62

$$$$
>  <chain-sequence>
LSQAKYQIRFR [CRLF1_Y272_F268S_YF]

>  <phosphorylation enrichment>
0.682

$$$$
>  <chain-sequence>
LNRAGYCDALE [MTUS1_Y151_C148R]

>  <phosphorylation enrichment>
0.684

$$$$
>  <chain-sequence>
YLQEIYNSNNQ [FGG_Y140]

>  <phosphorylation enrichment>
0.617

$$$$
>  <chain-sequence>
EKRDAYVSCLN [GSR_Y150_R153C]

>  <phosphorylation enrichment>
0.568

$$$$
>  <chain-sequence>
GVTLLYFGRFN [ADGRD1_Y85_YF]

>  <phosphorylation enrichment>
0.501

$$$$
>  <chain-sequence>
PKEEPYKMQEK [SLC5A3_Y565_Q566K]

>  <phosphorylation enrichment>
0.544

$$$$
>  <chain-sequence>
IRTGIYHGGEP [PIK3CA_Y361_V356I]

>  <phosphorylation enrichment>
0.392

$$$$
>  <chain-sequence>
RQNRFYDAKVR [FKBP6_Y188]

>  <phosphorylation enrichment>
0.226

$$$$
>  <chain-sequence>
LSSETYVKSYT [F5_Y2149_M2148T]

>  <phosphorylation enrichment>
0.553

$$$$
>  <chain-sequence>
DGTIVYTGLET [USH2A_Y4487]

>  <phosphorylation enrichment>
0.525

$$$$
>  <chain-sequence>
NKVKFYIPYMN [NCR1_Y84_D87Y]

>  <phosphorylation enrichment>
0.599

$$$$
>  <chain-sequence>
CITIHYNYMCN [TP53_Y234_T230I]

>  <phosphorylation enrichment>
0.605

$$$$
>  <chain-sequence>
LKLIQYHLTQQ [AKAP4_Y554]

>  <phosphorylation enrichment>
0.88

$$$$
>  <chain-sequence>
VVKTVYSLQPS [KNSTRN_Y87_P92S]

>  <phosphorylation enrichment>
0.671

$$$$
>  <chain-sequence>
KMKGEYFRFLA [YWHAG_Y130_D129E_YF]

>  <phosphorylation enrichment>
0.678

$$$$
>  <chain-sequence>
VFSSDYFSFVL [USP24_Y2138_YF]

>  <phosphorylation enrichment>
1.73

$$$$
>  <chain-sequence>
QYNPEYVQQAS [LRRC7_Y1058_H1054Y]

>  <phosphorylation enrichment>
0.687

$$$$
>  <chain-sequence>
IGEGTYGVLFK [CDK2_Y15_V18L_YF]

>  <phosphorylation enrichment>
1.1

$$$$
>  <chain-sequence>
KNEVFYQCPDQ [FBXO3_Y223]

>  <phosphorylation enrichment>
1.04

$$$$
>  <chain-sequence>
GGEAIYAAPFA [Abl_opt_1995]

>  <phosphorylation enrichment>
20.2

$$$$
>  <chain-sequence>
LYRYGYANTSE [SI_Y1233_C1229Y]

>  <phosphorylation enrichment>
0.437

$$$$
>  <chain-sequence>
RVGNMYMRGLS [ABCG8_Y209_V210M]

>  <phosphorylation enrichment>
0.615

$$$$
>  <chain-sequence>
RPGSGYTKIMR [PKLR_Y564_N566K]

>  <phosphorylation enrichment>
0.415

$$$$
>  <chain-sequence>
NPIGLYSAEIL [LDB3_Y202_T206I]

>  <phosphorylation enrichment>
3

$$$$
>  <chain-sequence>
ITVCDYTNPCP [MYD88_Y276_T281P]

>  <phosphorylation enrichment>
0.561

$$$$
>  <chain-sequence>
IMITDYLLLFR [INSR_Y87]

>  <phosphorylation enrichment>
0.678

$$$$
>  <chain-sequence>
STEPQYQPGEN [SRC_Y530]

>  <phosphorylation enrichment>
0.516

$$$$
>  <chain-sequence>
LDTIQYSKHPP [SQSTM1_Y433]

>  <phosphorylation enrichment>
0.778

$$$$
>  <chain-sequence>
ACDALYPPGPP

>  <phosphorylation enrichment>
0.485

$$$$
>  <chain-sequence>
AKLKDYYIFNK [CCDC42_Y149]

>  <phosphorylation enrichment>
0.449

$$$$
>  <chain-sequence>
VQEDIYDEFVV [ALDH2_Y332_E337V]

>  <phosphorylation enrichment>
0.676

$$$$

The reported measurements were obtained from the supplement of paper PMC10065799.
